molecular target: Acetylcholinesterase (Electrophorus electricus, UniProt O42275)
Sequence (O42275 whole entry): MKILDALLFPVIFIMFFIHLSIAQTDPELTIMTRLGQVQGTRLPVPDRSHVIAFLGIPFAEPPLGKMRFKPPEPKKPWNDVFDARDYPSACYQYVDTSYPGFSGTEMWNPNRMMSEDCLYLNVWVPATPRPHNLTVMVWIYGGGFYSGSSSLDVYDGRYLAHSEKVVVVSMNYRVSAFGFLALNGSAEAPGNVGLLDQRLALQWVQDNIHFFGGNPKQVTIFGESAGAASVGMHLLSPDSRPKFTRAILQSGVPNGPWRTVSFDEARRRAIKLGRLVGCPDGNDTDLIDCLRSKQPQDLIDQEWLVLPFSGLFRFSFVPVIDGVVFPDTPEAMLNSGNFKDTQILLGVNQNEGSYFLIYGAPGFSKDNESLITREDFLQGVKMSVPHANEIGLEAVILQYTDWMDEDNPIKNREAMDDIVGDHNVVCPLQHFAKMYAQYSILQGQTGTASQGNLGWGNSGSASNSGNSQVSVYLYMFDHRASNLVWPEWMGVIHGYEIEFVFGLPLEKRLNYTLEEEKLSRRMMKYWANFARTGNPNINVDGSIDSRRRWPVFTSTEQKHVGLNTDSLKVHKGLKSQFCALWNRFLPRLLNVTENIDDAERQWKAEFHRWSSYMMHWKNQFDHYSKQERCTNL
readout kind: Kd (µM)
API: value field is a number in µM; no unit string.

Query: Kd; subject: "COc1cc(CCc2ccc(Nc3c4c(nc5cc(Cl)ccc35)CCCC4)cc2)cc(OC)c1"
7.31

----------
biological target: UniProt P22303; assay: Inhibition of acetylcholinesterase isolated from human red blood cells using acetylthiocholine as substrate preincubated for 5 mins followed by substrate addition measured every 2 mins by Ellman's method
Sequence (P22303 whole entry): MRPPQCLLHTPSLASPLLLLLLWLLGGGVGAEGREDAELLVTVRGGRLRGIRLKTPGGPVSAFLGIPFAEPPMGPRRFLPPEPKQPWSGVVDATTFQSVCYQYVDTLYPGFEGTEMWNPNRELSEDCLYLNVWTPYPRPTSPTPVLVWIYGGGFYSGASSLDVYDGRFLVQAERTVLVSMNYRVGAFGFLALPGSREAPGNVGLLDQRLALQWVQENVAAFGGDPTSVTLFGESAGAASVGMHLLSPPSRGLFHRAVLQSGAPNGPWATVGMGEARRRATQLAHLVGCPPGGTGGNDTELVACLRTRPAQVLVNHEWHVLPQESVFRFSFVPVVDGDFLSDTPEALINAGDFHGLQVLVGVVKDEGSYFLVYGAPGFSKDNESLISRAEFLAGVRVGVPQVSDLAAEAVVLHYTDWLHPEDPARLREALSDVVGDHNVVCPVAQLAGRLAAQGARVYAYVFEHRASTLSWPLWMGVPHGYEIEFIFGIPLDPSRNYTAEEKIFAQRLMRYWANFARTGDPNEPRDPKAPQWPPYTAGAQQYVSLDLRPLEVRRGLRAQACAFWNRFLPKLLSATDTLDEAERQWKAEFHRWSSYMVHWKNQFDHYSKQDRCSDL
readout kind: IC50 (µM)
Your answer is read as µM, so omit the unit and give the number.

What does the data say about its IC50? Entry: "Oc1cc(O)cc(/C=C/c2ccc(Nc3c4c(nc5cc(Cl)ccc35)CCCC4)cc2)c1"
8.8

Next record, please: "COc1cc(CCc2ccc(Nc3c4c(nc5ccccc35)CCCC4)cc2)cc(OC)c1"
14.2

Next up: "COc1cc(CCc2ccc(Nc3c4c(nc5cc(Cl)ccc35)CCCC4)cc2)cc(OC)c1"
0.8

Same lookup for "Oc1cc(O)cc(CCc2ccc(Nc3c4c(nc5cc(Cl)ccc35)CCCC4)cc2)c1" , please.
1.3

----------
experiment: Hepatotoxicity against human HepG2 cells assessed as cell viability at 5 to 50 uM after 24 hrs by MTT assay relative to control; assay type: toxicity, cell-based; settings: read-out: Activity
readout kind: viability at 24 h, up to 50 µM (%)
Write the number in % without appending the unit.

Entry under review: "COc1cc(/C=C/c2ccc(Nc3c4c(nc5cc(Cl)ccc35)CCCC4)cc2)cc(OC)c1" . Reported viability at 24 h, up to 50 µM?
70
